CONDITION DESCRIPTION: 25 °C
Please go through the items and note down their solubility.
Provide only the numeric value, understood in mM.

[Q] Recorded solubility of O=C(O)c1ccc(F)c([N+](=O)[O-])c1 , please.
[A] 26.2

[Q] Recorded solubility of CCCCCCCCOCC(O)CO (stereo not given) , please.
[A] 12

[Q] Recorded solubility of C=CCOC(=O)C(C)OC(=O)C(C)O (stereo not given) , please.
[A] 208

[Q] Recorded solubility of N=C(NO)C(=N)NO , please.
[A] 167

[Q] Recorded solubility of CCOC(=O)N1CCN(C(=O)OCC)CC1 , please.
[A] 187

[Q] Recorded solubility of CCCCCCCCCCCNC(=O)c1cccnc1 , please.
[A] 0.941

[Q] Recorded solubility of ON=C1CCCCC1 , please.
[A] 159

[Q] Recorded solubility of c1cn[nH]c1 , please.
[A] 285

[Q] Recorded solubility of CCC1OC(=O)c2ccccc21 (stereo not given) , please.
[A] 17.9

[Q] Recorded solubility of O=[N+]([O-])c1cc([N+](=O)[O-])c(-c2ccccc2)cc1O , please.
[A] 0.0346

[Q] Recorded solubility of CC(C)C1OCC2(CO1)COC(C(C)C)OC2 (stereo not given) , please.
[A] 0.769

[Q] Recorded solubility of CCOP(=O)(OCC)OCC(C)C , please.
[A] 66.6

[Q] Recorded solubility of CC(C)C[C@H](NC=O)C(=O)O (racemic) , please.
[A] 185

[Q] Recorded solubility of CC(N)C(O)C(=O)O (stereo not given) , please.
[A] 443

[Q] Recorded solubility of Cc1ccc(/N=N/c2cc(C)ccc2N)cc1 , please.
[A] 0.125
